Assay: solvent given as SMILES
Conditions: in Cc1ccccc1
recorded.endpoint: absorption maximum (nm)
// return numeric value only (unit: nm, not printed)

O=C1c2ccc(N(c3ccc(-c4ccccc4)cc3)c3ccc(-c4ccccc4)cc3)cc2C(=O)c2ccc(N(c3ccc(-c4ccccc4)cc3)c3ccc(-c4ccccc4)cc3)cc21 | 464

Reported absorption maximum of `N#C/C(=C\c1cc(/C=C(\C#N)c2ccc(C(F)(F)F)cc2)c(-c2ccc(N(c3ccccc3)c3ccccc3)cc2)cc1-c1ccc(N(c2ccccc2)c2ccccc2)cc1)c1ccc(C(F)(F)F)cc1` : 408

Lab book: absorption maximum of `c1ccc2c(c1)CCc1ccccc1N2c1c2ccccc2cc2ccccc12` noted as 426

Entry `c1ccc2c(c1)c1ccccc1n2-c1ccc2cc(-c3ccc(-c4ccc(-c5cc6ccc(-n7c8ccccc8c8ccccc87)cc6o5)cc4)cc3)oc2c1` , absorption maximum reported as 369

Field absorption maximum (entry `CC(C)[Si](C#Cc1ccc(-c2c3cccc4c5cccc6c(-c7ccc(C#C[Si](C(C)C)(C(C)C)C(C)C)cc7)c7cccc8c9cccc2c9c(c34)c(c65)c78)cc1)(C(C)C)C(C)C` ) reads 727

The reported absorption maximum of the compound `CN(C)c1ccc(/C=C/c2cc(/C=C/c3ccc(N(C)C)cc3)nc(N)n2)cc1` was 414

----------
Experiment: solvent given as SMILES
Settings: in CC#N
Assign 1 (yes) to entries whose absorption maximum meets or exceeds 400 nm; assign 0 (no) to the rest.

COc1ccc(OC)c(C=O)c1 | 0 (no)
CN(C)c1ccc2cc(C3=[O+][B-](F)(F)OC(c4ccc(C#N)cc4)=C3)ccc2c1 | 1 (yes)
CN1CCN(c2ccc3c4c(cccc24)C(=O)c2ccccc2-3)CC1 | 1 (yes)

Problem: Could you verify whether the entry `Cc1cc(O)c(C(=O)/C=C/c2ccccc2O)c(=O)o1` shows absorption maximum of no less than 400 nm?
Result: 0 (no)

Problem: Decide: absorption maximum of `C(=C\c1ccc(Nc2ccccc2)cc1)/c1ccccc1` >= 400 nm?
Result: 0 (no)

Problem: For this compound, is measured absorption maximum 400 nm or higher? `CC(C)(C)c1ccc2c(c1)c1cc(C(C)(C)C)ccc1n2-c1ccc(C#Cc2ccc(C=C(C#N)C#N)cc2)cc1`
Result: 0 (no)

Problem: Record `N#Cc1ccc(-c2nc(-c3ccccc3)c3ccccn23)cc1` ; criterion: absorption maximum no lower than 400 nm. Met?
Result: 0 (no)

Problem: Check the entry CN(C)c1ccc(/C=C/C=C/C2=NC3C(=O)NC(N)=NC3N2[C@H]2C[C@H](O)[C@@H](CO)O2)cc1 (stereo partly specified) : does absorption maximum equal or exceed 400 nm?
Result: 0 (no)

Problem: Textbook exercise: given the entry `Cc1cc(O)c(C(=O)/C=C/c2ccccc2)c(=O)o1` , state whether its absorption maximum is greater than or equal to 400 nm.
Result: 0 (no)

Problem: # bool: absorption maximum of COC1(OC)C2(Cl)c3nc4cc(-c5cccs5)ccc4nc3C1(Cl)C1C[C@H]3[C@@H](CC12)C1(Cl)c2nc4cc(-c5cccs5)ccc4nc2C3(Cl)C1(OC)OC (stereo partly specified) >= 400 nm
Result: 0 (no)

Problem: Has `CCCSC1=[N+]2C(=C(c3ccccc3)c3ccc(SCCC)n3[B-]2(F)F)C=C1SC#N` a recorded absorption maximum greater than or equal to 400 nm?
Result: 1 (yes)

Problem: Please check the record `c1ccc(-c2cc(-c3ccc4ccc5cccc6ccc3c4c56)ccn2)nc1` and state if its absorption maximum is at or above 400 nm.
Result: 0 (no)

Problem: Hi team, for `Cn1c(/C=C/c2ccc(/C=C/c3nc4ccccc4[nH]3)cc2)[n+](C)c2ccccc21` , is the recorded absorption maximum at or above 400 nm?
Result: 0 (no)

Problem: Entry CCCCC(CC)CN1C(=O)c2cccc3c(C#Cc4ccc(N(c5ccccc5)c5ccccc5)cc4)ccc(c23)C1=O (stereo unspecified) : is its absorption maximum no less than 400 nm?
Result: 1 (yes)

Problem: Form field: absorption maximum at least 400 nm? Entry: `CC1(C)Cc2c(c3ccccc3c3nc4c(nc23)c2c(c3ccccc34)OC(C)(C)C2)O1`
Result: 1 (yes)

Problem: Item `Cc1ccc2oc(-c3cc4cc(C)ccc4oc3=O)cc2c1` with absorption maximum of 400 nm or above?
Result: 0 (no)

Problem: Is absorption maximum at least 400 nm? Consider `Cc1oc(-c2ccccc2)nc1C(=O)O`
Result: 0 (no)

----------
Form field: absorption maximum (one value per entry).
Assay: solvent given as SMILES
Settings: in CS(C)=O
Numbers only here, please. The scale is nm.

CCCn1c(-c2cc(-c3nc4ccccc4n3CCC)cc(-c3nc4ccccc4n3CCC)c2)nc2ccccc21 | 301.5

Then there is this compound:
What the record says about `CC1=C(Cc2ccccc2)C(C)=[N+]2C1=C(C)c1c(C)c(-c3csc(N4CCOCC4)n3)c(C)n1[B-]2(F)F` : absorption maximum is 522

----------
Assay: solvent given as SMILES
Settings: in C1CCOC1
Note to self: absorption maximum under 400 nm means rule met, ties and anything higher get rule not met.

Use these answered entries as a reference point.
CCCCCOc1cc2oc(=O)c3c4ccc(C#N)cc4c4ccc5cccc6c(c1)c2c3c4c56 | rule not met
Nc1ccc(-c2ccc(N)cc2)cc1 | rule met
Cc1cc(C)c(B(c2c(C)cc(C)cc2C)c2cc3ccc4ccccc4c3c3c2ccc2ccccc23)c(C)c1 | rule not met
CCc1ccc(-c2nc(-c3ccc(-n4c5ccccc5c5ccccc54)cc3)cc(-c3ccc(-n4c5ccccc5c5ccccc54)cc3)n2)cc1 | rule met
CN1CCN(c2ccc3c4c(cccc24)C(=O)c2ccccc2-3)CC1 | rule not met
CC(=O)c1ccc2ccc3c(NCCC(=O)NCCCCCCc4nc5c(=O)[nH]c(N)nc5n4[C@H]4C[C@H](O)[C@@H](CO)O4)ccc4ccc1c2c43 | rule not met
C1=C(c2ccccc2)C=C(c2ccccc2)/C1=C/c1ccc2c(c1)Cc1ccccc1-2 | rule met
c1ccc(-c2nc(-c3ccc(-c4nc(-c5ccccc5)c(-c5ccccc5)[nH]4)s3)[nH]c2-c2ccccc2)cc1 | rule met

Here is the next item to consider.
Problem: Regarding `Cc1ccc(N(c2ccc(C)cc2)c2ccc(-c3ccc4c(c3)C(=O)c3ccccc3C4=O)cc2)cc1` , kindly confirm whether its absorption maximum is beneath 400 nm.
Result: rule not met

----------
Assay: solvent given as SMILES
Details: in ClCCl
Documented absorption maximum across a set of molecules
Respond with the bare value in nm.

COc1cc2c(cc1-c1ccccc1)Cc1c3c(c4c(c1-2)-c1cc(OC)c(-c2ccccc2)cc1C4)C(=O)N(CCC(C)C)C3=O | 411
F[B-]1(F)n2c(Cl)ccc2C(c2c(Cl)cccc2Cl)=C2C=CC(NCc3ccccc3)=[N+]21 | 505

// sample `O=[N+]([O-])c1ccc([N+]2=CC3=C(O[B-]2(F)F)c2ccccc2SC3)cc1` , its absorption maximum was 440

Form field absorption maximum, entry `COc1ccccc1-c1nc(-c2ccccc2)c2ccccn12` : 374

The value of absorption maximum measured for the molecule `COC(=O)c1nc2cnc(N)nc2n1Cc1ccccc1` turned out to be 328

Given item `COc1c2ccccc2c(OC)c2c1c1cccc(OC)c1n2C` , the value recorded as its absorption maximum is 412

absorption maximum recorded for this molecule, `C=CCOC(=O)C(C#N)=C1C=C(/C=C/c2ccc(N(C)C)cc2)OC(/C=C/c2ccc(N(C)C)cc2)=C1` , is 481

absorption maximum reading for `CCOCCOCCOC(=O)/C=C/C1=CC2=C(c3c(C)cc(C)cc3C)c3cccn3[B-](F)(F)[N+]2=C1` : 536

Sample `CC(C)(C)c1ccc(-c2ccc3c(-c4ccc(C(C)(C)C)c5ccccc45)cc4c5cc(-c6ccc(C(C)(C)C)c7ccccc67)ccc5c(-c5ccc(C(C)(C)C)c6ccccc56)cc4c3c2)c2ccccc12` ; absorption maximum observed: 300

The reported absorption maximum of the molecule `CCCCc1ccc2c(c1)c1ccc3cccc4c3c1c1c2c2cccc3ccc5c6cc(CCCC)ccc6c4c1c5c32` was 492

Record summary for `CCCCOc1ccc(-c2cc3c(o2)c(-c2ccc(OCCCC)cc2)c2n3[B-](F)(F)[N+]3=Cc4c(-c5ccc(OCCCC)cc5)c5oc(-c6ccc(OCCCC)cc6)cc5n4[B-](F)(F)[N+]3=C2)cc1` : reported absorption maximum = 622

Given item `c1ccc(N(c2ccccc2)c2ccc(-c3ccc4c(c3)C3(c5cc(-c6ccc(N(c7ccccc7)c7ccccc7)cc6)ccc5-4)c4ccccc4N(c4ccccc4)c4ccccc43)cc2)cc1` , the value recorded as its absorption maximum is 372

Quick note, absorption maximum for `COc1cc2c(cc1C=C(C#N)C#N)c1ccccc1n2C` landed at 427

// `CCn1c2ccccc2c2c3nsnc3c3c4ccccc4n(CC)c3c21` : absorption maximum value = 420

The value of absorption maximum measured for the molecule `CC(C)(C)c1cc2ccc3c(N(c4ccccc4)c4ccccc4)cc(N(c4ccccc4)c4ccccc4)c4ccc(c1)c2c34` turned out to be 414

Just so you know, measured absorption maximum for `Nc1ccc(-c2ccc(N)cc2)cc1` came out at 286

Measured absorption maximum of `COc1ccc(-c2cnc(/C=C/c3ccc(OC)c(OC)c3)o2)cc1` : 360
